Would you mind telling me the reported inhibition at 0.1 µM of each entry?
measured on: recombinant IRAK-4 kinase (Homo sapiens, UniProt Q9NWZ3)
Construct: purchased Millipore, USA
Sequence (Q9NWZ3 whole entry): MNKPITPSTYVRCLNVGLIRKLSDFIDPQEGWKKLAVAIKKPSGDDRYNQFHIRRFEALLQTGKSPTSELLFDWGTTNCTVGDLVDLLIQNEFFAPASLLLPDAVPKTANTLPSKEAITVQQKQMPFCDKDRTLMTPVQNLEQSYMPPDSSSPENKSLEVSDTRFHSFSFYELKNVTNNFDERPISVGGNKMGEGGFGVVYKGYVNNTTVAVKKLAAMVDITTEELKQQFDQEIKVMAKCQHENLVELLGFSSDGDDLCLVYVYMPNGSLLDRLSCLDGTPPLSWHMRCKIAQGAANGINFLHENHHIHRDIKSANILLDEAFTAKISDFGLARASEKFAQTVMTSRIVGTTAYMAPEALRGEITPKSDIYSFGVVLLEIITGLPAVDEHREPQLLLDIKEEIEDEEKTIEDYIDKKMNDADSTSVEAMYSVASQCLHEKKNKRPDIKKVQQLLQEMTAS
assay info: IRAK-4 Biochemical Assay (TR-FRET, percent inhibition)
study conditions: read-out: % inhibition of IRAK-4 @0.1 μM, compound at 0.1 μM; TR-FRET, 20 μM ATP, 100 nM Biotin Histone H3
Include the unit right after the number.

// fetch recombinant IRAK-4 kinase (Homo sapiens, UniProt Q9NWZ3) inhibition at 0.1 µM for Cc1ccc(-c2nc3nc(N4CCOCC4)sc3cc2NC(=O)c2cnn3cccnc23)nc1
97%

Item: Cc1cc(-c2nc(C(=O)Nc3cc4oc(N5CCOCC5)nc4nc3N3CC[C@@H](OCC4CC4)C3)co2)ccn1
80%

Item: O=C(Nc1cc2sc(N3CCOCC3)nc2nc1N1CCCCC1)c1cccc(N2CC(C(=O)O)NC2=O)n1 (centres unmarked)
79%

Item: O=C(Nc1cc2sc(N3CCOCC3)nc2nc1N1CCCCC1)c1cccc(N2CCC[C@H](O)C2)n1
98%

Item: O=C(Nc1cc2sc(N3CCOCC3)nc2nc1N1CCCCC1)c1cccc(-n2cnc(CO)c2)n1
100%

Item: O=C(Nc1cc2sc(N3CCOCC3)nc2nc1N1CCCCC1)c1cccc(N2CCC(C(=O)O)CC2)n1
94%

Item: O=C(Nc1cc2sc(N3CCOCC3)nc2nc1N1CCOCC1)c1cccc(N2CCC(O)C2)n1 (centres unmarked)
92%

Item: O=C(Nc1cc2sc(N3CCOCC3)nc2nc1N1CCCCC1)c1cccc(N2CC[C@@H](O)C2)n1
97%

====

measured on: recombinant IRAK-4 kinase (Homo sapiens)
Construct: purchased Millipore, USA
assay info: IRAK-4 Biochemical Assay (TR-FRET, percent inhibition)
study conditions: read-out: % inhibition of IRAK-4 @ 1 μM, compound at 1 μM; TR-FRET, 20 μM ATP, 100 nM Biotin Histone H3
Counter-ions that a name gives are not always drawn.
Would you mind telling me the reported inhibition at 1 µM of each entry?
Report the value in % with no unit label.

Suppose we examine the compound O=C(Nc1cc2sc(N3CCOCC3)nc2nc1N1CCCCC1)c1cncc(N2CCC(O)C2)n1 (centres unmarked) [Example 54, hydrochloride] ; what inhibition at 1 µM value has been reported?
97

Item: Cc1cc(-c2nc(C(=O)Nc3cc4sc(N5CCOCC5)nc4nc3N3CCC(O)(CO)C3)co2)ccn1 (centres unmarked) [Example 9, hydrochloride]
99

Item: O=C(Nc1cc2sc(N3CCOCC3)nc2nc1N1CCCCC1)c1cccc(-n2cc(CO)cn2)n1 [Example 69]
99

Item: Cc1cc(-c2nc(C(=O)Nc3cc4oc(N5CCOCC5)nc4nc3N3CCCC3=O)co2)ccn1 [Example 89, hydrochloride]
73

Item: O=C(Nc1cc2sc(N3CCOCC3)nc2nc1N1CCCCC1)c1cccc(NCC2CCOCC2)n1 [Example 37]
95

Item: O=C(Nc1cc2sc(N3CCOCC3)nc2nc1N1CCCCC1)c1cccc(N2CCO[C@@H](CO)C2)n1 [Example 33]
97

Item: Cc1cc(-c2ccc(C(=O)Nc3cc4sc(N5CCOCC5)nc4nc3N3CCCC(O)(CO)C3)o2)ccn1 (centres unmarked) [Example 5, hydrochloride]
99

Item: NC1CCCN(c2ccn3ncc(C(=O)Nc4cc5sc(N6CCOCC6)nc5nc4N4CC[C@@H](O)C4)c3n2)C1 (some centres unmarked) [Example 102, hydrochloride]
56
